measured_metric: melting point

The following compounds have reported results that may help.
COc1ccccc1[S+]([O-])c1ccc(-c2noc(C(F)(F)F)n2)cc1 (centres unmarked); 105 to 115 °C
O=S(=O)(Cc1ccc(-c2noc(C(F)(F)F)n2)c(F)c1F)c1ccccc1; 187 to 191 °C
[O-][S+](c1ccc(-c2noc(C(F)(F)F)n2)cc1)C1CCCCC1 (centres unmarked); 108 to 114 °C
[O-][S+](c1ccc(-c2noc(C(F)(F)F)n2)cn1)c1ccccc1F (centres unmarked); 92 to 95 °C
[O-][S+](c1ccc(-c2noc(C(F)(F)F)n2)cc1)c1ccccc1C(F)(F)F (centres unmarked); 80 to 86 °C
Cc1cc(C)cc([S+]([O-])c2ccc(-c3noc(C(F)(F)F)n3)cc2)c1 (centres unmarked); 71 to 83 °C
O=S(=O)(c1ccc(F)cc1)c1ccc(-c2noc(C(F)(F)F)n2)cc1; 144 to 149 °C

Could you now look at the following compound, please?
IN: // lookup melting point for `Cc1cc(-c2noc(C(F)(F)F)n2)ccc1S(=O)(=O)c1ccccc1`
OUT: 117 to 124 °C

###

Quick reference for melting point among some compounds

The following compounds have reported results that may help.
[O-][S+](c1ccccc1)c1ccc(-c2noc(C(F)(F)F)n2)cc1 (centres unmarked); 97 to 106 °C
[O-][S+](c1ccc(-c2noc(C(F)(F)F)n2)cc1)c1ccccc1F (centres unmarked); 116 to 121 °C
COc1ccccc1S(=O)(=O)c1ccc(-c2noc(C(F)(F)F)n2)cc1; 119 to 123 °C
Cc1ccccc1S(=O)(=O)c1ccc(-c2noc(C(F)(F)F)n2)cn1; 66 to 68 °C

IN: // lookup melting point for `O=S(=O)(c1ccc(-c2noc(C(F)(F)F)n2)cc1)c1ccccc1F`
OUT: 140 to 147 °C

IN: // lookup melting point for `O=S(=O)(Cc1ccc(-c2noc(C(F)(F)F)n2)cn1)c1ccccc1`
OUT: 160 to 166 °C

IN: // lookup melting point for [O-][S+](Cc1c(F)cccc1F)c1ccc(-c2noc(C(F)(F)F)n2)cc1 (centres unmarked)
OUT: 126 to 130 °C

IN: // lookup melting point for [O-][S+](c1ccc(F)cc1)c1ccc(-c2noc(C(F)(F)F)n2)cc1 (centres unmarked)
OUT: 94 to 99 °C

###

Quick reference for melting point among some compounds

The following compounds have reported results that may help.
O=S(=O)(c1ccc(-c2noc(C(F)(F)F)n2)cn1)c1ccccc1F; 145 to 151 °C
O=S(=O)(Cc1c(F)cc(-c2noc(C(F)(F)F)n2)cc1F)c1ccccc1; 135 to 140 °C
FC(F)(F)c1nc(-c2ccc(SCc3ccccc3)cc2)no1; 83 to 87 °C
[O-][S+](CCc1ccccc1)c1ccc(-c2noc(C(F)(F)F)n2)cc1 (centres unmarked); 81 to 85 °C

Could you now look at the following compound, please?
IN: // lookup melting point for [O-][S+](Cc1ccc(-c2noc(C(F)(F)F)n2)c(F)c1F)c1ccccc1 (centres unmarked)
OUT: 163 to 167 °C

###

Quick reference for melting point among some molecules

The following molecules have reported results that may help.
O=S(=O)(Cc1ccc(-c2noc(C(F)(F)F)n2)c(F)c1)c1ccccc1; 172 to 178 °C
Fc1cccc(F)c1Sc1ccc(-c2noc(C(F)(F)F)n2)cc1; 75 to 85 °C
COc1ccc(Sc2ccc(-c3noc(C(F)(F)F)n3)cc2)cc1; 55 to 60 °C
O=S(=O)(Cc1ccc(-c2noc(C(F)(F)F)n2)cc1)c1ccccc1F; 150 to 154 °C

IN: // lookup melting point for CCC(C)C[S+]([O-])c1ccc(-c2noc(C(F)(F)F)n2)cc1 (stereo not drawn)
OUT: 38 to 43 °C

IN: // lookup melting point for `Fc1ccccc1Sc1ccc(-c2noc(C(F)(F)F)n2)cc1`
OUT: 35 to 38 °C

IN: // lookup melting point for `Fc1ccc(Sc2ccc(-c3noc(C(F)(F)F)n3)cc2)cc1`
OUT: 64 to 67 °C

IN: // lookup melting point for `CC(C)(C)S(=O)(=O)c1ccc(-c2noc(C(F)(F)F)n2)cc1`
OUT: 133 to 136 °C

IN: // lookup melting point for Cc1ccccc1[S+]([O-])c1ccc(-c2noc(C(F)(F)F)n2)cn1 (stereo not drawn)
OUT: 103 to 105 °C

###

Quick reference for melting point among some compounds

[O-][S+](c1ccc(-c2noc(C(F)(F)F)n2)cc1)c1c(F)cccc1F (stereo not drawn); 148 to 155 °C
Fc1ccc(Sc2ccc(-c3noc(C(F)(F)F)n3)cc2)c(F)c1; 72 to 80 °C
O=S(=O)(c1ccc(-c2noc(C(F)(F)F)n2)cc1)c1cccc(F)c1; 136 to 143 °C
O=S(=O)(c1ccccc1)c1ccc(-c2noc(C(F)(F)F)n2)cc1; 128 to 132 °C
[O-][S+](c1ccc(-c2noc(C(F)(F)F)n2)cc1)c1ccc(F)cc1F (stereo not drawn); 118 to 123 °C

Could you now look at the following compound, please?
IN: // lookup melting point for [O-][S+](c1ccc(-c2noc(C(F)(F)F)n2)cc1)c1ccc(C(F)(F)F)cc1 (stereo not drawn)
OUT: 94 to 100 °C

###

Quick reference for melting point among some compounds

The following compounds have reported results that may help.
[O-][S+](CC(F)(F)F)c1ccc(-c2noc(C(F)(F)F)n2)cc1 (stereo not shown); 93 to 100 °C
CCC(C)CS(=O)(=O)c1ccc(-c2noc(C(F)(F)F)n2)cc1 (stereo not shown); 75 to 80 °C
[O-][S+](c1ccccc1)c1ccc(-c2noc(C(F)(F)F)n2)cn1 (stereo not shown); 91 to 97 °C

Could you now look at the following compound, please?
IN: // lookup melting point for Cc1ccc(C)c([S+]([O-])c2ccc(-c3noc(C(F)(F)F)n3)cc2)c1 (stereo not shown)
OUT: 103 to 109 °C

###

# System: Glomerella lagenarium (Colletotrichum lagenarium)
# method_notes: Glomerella lagenarium (Colletotrichum lagenarium) liquid culture / cucumber / preventative (anthracnose)
# Format: cell-based
# test_settings: Colletotrichum orbiculare; 20 ppm in the applied formulation; liquid culture in PDB, 24° C.; 3 to 4 days after application; read-out: disease control compared to untreated control (inhibition of growth measured photometrically)
Quick reference for inhibition at 20 ppm among some molecules

The following molecules have reported results that may help.
CC(C)(C)S(=O)(=O)c1ccc(-c2noc(C(F)(F)F)n2)cc1 [Compound 3.13]; ≥ 80%
Cc1ccc(C)c([S+]([O-])c2ccc(-c3noc(C(F)(F)F)n3)cc2)c1 (stereo not drawn) [Compound 2.7]; ≥ 80%

Could you now look at the following molecule, please?
IN: Identify the measured inhibition at 20 ppm of Fc1c(CSc2ccccc2)ccc(-c2noc(C(F)(F)F)n2)c1F [Compound 1.26] for Glomerella lagenarium (Colletotrichum lagenarium).
OUT: ≥ 80%

###

Quick reference for melting point among some compounds

The following compounds have reported results that may help.
Fc1cc(CSc2ccccc2)ccc1-c1noc(C(F)(F)F)n1; 48 to 54 °C
FC(F)(F)c1nc(-c2ccc(CSc3ccccc3)cc2)no1; 86 to 91 °C
[O-][S+](c1ccc(-c2noc(C(F)(F)F)n2)cc1)c1cccc(F)c1 (stereo not drawn); 103 to 111 °C

IN: // lookup melting point for `Fc1cc(-c2noc(C(F)(F)F)n2)ccc1CSc1ccccc1`
OUT: 50 to 55 °C

IN: // lookup melting point for [O-][S+](Cc1ccccc1)c1ccc(-c2noc(C(F)(F)F)n2)cn1 (stereo not drawn)
OUT: 122 to 125 °C

IN: // lookup melting point for `O=S(=O)(c1ccc(-c2noc(C(F)(F)F)n2)cc1)C1CCCCC1`
OUT: 110 to 116 °C

IN: // lookup melting point for [O-][S+](Cc1ccc(-c2noc(C(F)(F)F)n2)c(F)c1)c1ccccc1 (stereo not drawn)
OUT: 149 to 156 °C

IN: // lookup melting point for [O-][S+](Cc1ccc(-c2noc(C(F)(F)F)n2)cc1F)c1ccccc1 (stereo not drawn)
OUT: 116 to 120 °C

IN: // lookup melting point for `FC(F)(F)c1nc(-c2ccc(CSc3ccccc3)nc2)no1`
OUT: 71 to 78 °C

Measured values drawn from patent US20180319753A1 for this set.
